Subject Of Test: human STING (Homo sapiens, UniProt Q86WV6)
Sequence (Q86WV6 whole entry H232R): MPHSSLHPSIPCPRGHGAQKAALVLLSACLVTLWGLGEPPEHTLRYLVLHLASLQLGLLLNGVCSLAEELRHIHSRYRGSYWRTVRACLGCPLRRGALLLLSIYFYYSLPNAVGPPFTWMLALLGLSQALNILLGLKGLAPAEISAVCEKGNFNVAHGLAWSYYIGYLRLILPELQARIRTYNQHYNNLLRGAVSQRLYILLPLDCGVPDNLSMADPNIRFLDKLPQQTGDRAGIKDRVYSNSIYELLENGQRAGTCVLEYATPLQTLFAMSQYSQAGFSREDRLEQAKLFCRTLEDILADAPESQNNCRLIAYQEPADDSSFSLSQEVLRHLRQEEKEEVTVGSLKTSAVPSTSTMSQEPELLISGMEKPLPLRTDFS
Experimental Protocol: Fluorescence Thermal Shift assay (hSTING FTS binding assay);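 further: STING preincubated with compound for 20 min in HEPES NaCl buffer pH 7.5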
Protocol Conditions: ΔTm, STING 0.1 mg/mL, SyproOrange, 25 to 99° C.
Reported Endpoint: hSTING FTS binding assay (ΔT ° C.)

Take a look at these entries with their results.
Cc1ccc(N2CCC[C@H](N(Cc3ccnc(C)c3)Cc3cn(C4CC4)c4nc(N5CC[C@@H](O)C5)c(F)cc4c3=O)C2)cn1.Cl [Example 37]	+++ (ΔTm≥20° C.)
Cc1ccc(N2CCC[C@H](N(Cc3ccnc(C)c3)Cc3cn(C)c4cc(N5CCC(N)CC5)ccc4c3=O)C2)cn1.Cl [Example 6]	++ (10<ΔTm<20° C.)
Cc1cc(CN(Cc2cn(C)c3cc(N4CCC(C(=O)O)CC4)ccc3c2=O)[C@H]2CCCN(c3cccnc3)C2)ccn1 [Example 46]	++ (10<ΔTm<20° C.)
Cc1ccc(N2C[C@@H](F)C[C@H](N(Cc3ccnc(C)c3)Cc3cn(C4CC4)c4cc(OCCO)c(F)cc4c3=O)C2)cn1 [Example 75]	+++ (ΔTm≥20° C.)

GET /value?item= CN[C@@H]1CCN(c2cc3c(cc2F)c(=O)c(CN(Cc2ccnc(C)c2)[C@H]2CCCN(c4ccc(C)nc4)C2)cn3C2CC2)C1.Cl [Example 55] &field=hSTING FTS binding assay (ΔT ° C.) returns +++ (ΔTm≥20° C.)

GET /value?item= Cc1cc(CN(Cc2cn(C(C)C)c3ccccc3c2=O)[C@H]2CCCN(c3ccc(N)nc3)C2)ccn1.Cl [Example 34] &field=hSTING FTS binding assay (ΔT ° C.) returns +++ (ΔTm≥20° C.)

GET /value?item= COCCn1cc(CN(Cc2ccnc(C)c2)[C@H]2CCCN(c3ccc(N)nc3)C2)c(=O)c2ccccc21.Cl [Example 21] &field=hSTING FTS binding assay (ΔT ° C.) returns +++ (ΔTm≥20° C.)
